measurement-target: pooled human IgG (human IgG1, 2, 3 and 4)
Catalogue of Enzyme Activity Endpoint Assay (purified): IgG readings, one per entry.
The reply should consist of the numeric value with the unit placed after it.

Here's what some known entries look like.
| protein | observed-result |
| --- | --- |
| PRT-400 (protein) MVTSVWTKGVTPPADFTQGEDVFHAPYDANQGWYDITKTFNGKDDLLCGAATAGNMLHWWFDQNKEYIEAYLKKHPEKQKIMFGDQELLDVRKAINTKGSQKNSELFNYFRDKAFPNLSARRLGVMPDLVLDMFINGYYLNVTKTQTTDVNRTYQEKDKRGGIFDAVFTRGDQSKLLTSRHDFKEKGLKEISDLIKQELTEGKALGLSHTYANVRINHVINLWGADFDSDGNLKAIYVTDSDSNASIGMKKYFVGVNSAGKVAISAKEIKEDNIGAQVLGLFTLSTGQDIWNQTN | 176 ng/µL |
| PRT-697 (protein) MTITSVWTKGVIPPTPEDFRYNNEDVLHAPYVPNQGWYDITKTFDGGDNLLCGAATAGNMLHWWFDQNKEEIERYLKKYPEKQKIIFNNQELFDVRAAINTKDSQTNSKLFNYFRDKAFPNLSARQLGVMPDLVLDMFINGYYLNLGKTQSTDVNRPYQDRDKRGGIFDHVFGRGDQTTLLTARHDLKNGGLNEISDLIKQELQSGKALALSHTYANVRINHVINLWGADFDAEGNLIAIYVTDSDANSSIGMKKYYVGVNANGKVAISAKKIEGDNIGAQVLGLFTLSTGQEIWQKLSLEHHHHHH | 221 ng/µL |
| PRT-516 (protein) MITSVWTKGVTPPTDFIKGEDVFHAPYKAGQGWYDITKAFDGGDDLLCGAATAGNMLHWWFDQNKEEIEAYLKKHPEKQKIMFGDQELLDVRKVINTKDSQTNSALFNYFKDKAFPNLSARRLGVMPDLVLDMFINGYYLNVYKTQTTDVNRTYQTKDRRGGIFDAVFTRGDQSKLLTERHDLKNKTLNEISQLIKQELTEGKALGLSHTYANVRINHVINLWGADFDAEGNLEAIYVTDSDSNASIGMKKYFVGVNSAGKVAISAKEIKEDNIGAQVLGLFTLSTGQDIWNQTNLEHHHHHH | 0 ng/µL |
| PRT-392 (protein) MVTSVWTKGVTPPTNFTYGEDVLHAPYVANQGWYDITKTFNGKDDLLCGAATAGNMLHWWFDQNKEQIENYLKKHPEKQKINFNGEQMFDVKEAIDTKDSQLDSKLFEYFKEKAFPYLSTKHLGVFPDHVIDMFINGYRLSLTNHGPTPVKRGSKDPRGGIFDAVFTRGVQSKLLTNRHDFKEKTLKEISDLIKQELTEGKALGISHTYANVRINHVINLWGADFDAEGNLEAIYVTDSDSNASIGMKKYFVGVNSNGKVAISAKEIEEDNIGAQVLGLFTLSTGQDIWNQTN | 0 ng/µL |
| PRT-407 (protein) MVTSVWTKGVTPPADFTQGEDVFHAPYVANQGWYDITKTFNGKDDLLCGAATAGNMLHWWFDQNKEYIEAYLKKHPEKQKIIFGDQELLDVRKAINTKGSQKNSELFNYFRDKAFPNLSARRLGVMPDLVLDMFINGYYLNVTKTQTTDVNRTYQEKDKRGGIFDAVFTRGDQSKLLTSRHDFKEKGLKEISDLIKQELTEGKALGLSHTYANVRINHVINLWGADFDSDGNLKAIYVTDSDSNASIGMKKYFVGVNSAGKVAISAKEIKEDNIGAQVLGLFTLSTGQDIWNQTN | 90 ng/µL |

Documented Enzyme Activity Endpoint Assay (purified): IgG of PRT-390 (protein) MVTSVWTKGVTPPTNFTYGEDVLHAPYVANQGWYDITKTFNGKDDLLCGAATAGNMLHWWFDQNKEQIENYLKKHPEKQKINFNGEQLFDVKEAIDTKDSQLDSKLFEYFKEKAFPYLSTKHLGVFPDHVIDMFINGYRLSLTNHGPTPVKRGSKDPRGGIFDAVFTRGDQSKLLTNRHDFKEKTLKEISDLIKQELTEGKALGISHTYANVRINHVINLWGADFDAEGNLEAIYVTDSDSNASIGMKKYFVGVNSNGKVAISAKEIEEDNIGAQVLGLFTLSTGQDIWNQTN : 0 ng/µL

// PRT-621 (protein) MQITSVWTKGVTPLTPEQFRYNNEDVIHAPYLAHQGWYDITKAFDGKDNLLCGAATAGNMLHWWFDQNKTEIEAYLSKHPEKQKIIFNNQELFDLKAAIDTKDSQTNSQLFNYFRDKAFPNLSARQLGVMPDLVLDMFINGYYLNVFKTQSTDVNRPYQDKDKRGGIFDAVFTRGDQTTLLTARHDLKNKTLNEISQIIKQELSSGRALALSHTYANVSISHVINLWGADFNAEGNLEAIYVTDSDANASIGMKKYFVGINAHGHVAISAKKIEGENIGAQVLGLFTLSSGKDIWQKLSLEHHHHHH : Enzyme Activity Endpoint Assay (purified): IgG value = 0 ng/µL
